- System: breast cancer cell line MX-1
- method-description: MX-1 cell line proliferation assay (3-day, Cell Titer Glo)
- Assay type: cell-based
- recorded-conditions: Homo sapiens, MX1, MX-1 cells, 72 hours, read-out: Cellular proliferation: EC50
pEC50: −log10 of the molar value.
quantity-kind: pEC50

[[record]]
compound = "Cn1cc2c(cc1=O)OCCCCc1cc(C#N)ccc1Oc1ccc(NS(C)(=O)=O)cc1-2 [Example A-47]"
assay_result = 7.61

[[record]]
compound = "Cn1cc2c(cc1=O)OCCCCc1cc(F)ccc1Oc1ccc(NS(C)(=O)=O)cc1-2 [Example A-50]"
assay_result = 8.43

[[record]]
compound = "CCS(=O)(=O)Nc1ccc2c(c1)-c1cn(C)c(=O)cc1OCCCCc1cc(Cl)ccc1O2 [Example A-9]"
assay_result = 8.24

[[record]]
compound = "Cn1cc2c(cc1=O)OCCCCc1cc(Cl)ccc1Oc1ncc(CO)cc1-2 [Example A-39]"
assay_result = 6.76

[[record]]
compound = "Cn1cc2c(cc1=O)OCCCc1cc(Cl)ccc1Oc1ccc(N)cc1-2 [Example A-7]"
assay_result = 6.96


A = CCS(=O)(=O)Nc1ccc2c(c1)-c1nn(C)c(=O)cc1OCCCCc1cc(C#N)ccc1O2 [Example A-56]
B = CCS(=O)(=O)c1ccc2c(c1)-c1cn(C)c(=O)cc1OCCCCc1ccncc1O2 [Example A-42]
C = CCS(=O)(=O)c1ccc2c(c1)-c1nn(C)c(=O)cc1OCCCCc1ccncc1O2 [Example A-59]
D = CCS(=O)(=O)Nc1ccc2c(c1)-c1cn(C)c(=O)cc1OCCCCc1cc(C(F)(F)F)ccc1O2 [Example A-29]
Order each entry by recorded pEC50, climbing from the minimum. Reply with the labels, ordered as the question asks. C, A, B, D
(C: 6.95, A: 7.77, B: 7.99, D: 8.40)

---

- System: breast cancer cell line MX-1
- method-description: MX-1 cell line proliferation assay (3-day, Cell Titer Glo)
- Type: cell-based
- recorded-conditions: Homo sapiens, MX1, MX-1 cells, 72 hours, read-out: Cellular proliferation: EC50
pEC50: −log10 of the molar value.
quantity-kind: pEC50

[[record]]
molecule = "CCOC(=O)N1CCOc2cc(=O)n(C)cc2-c2cc(NS(=O)(=O)CC)ccc2Oc2ccc(Cl)cc2C1"
assay_result = 7.77

[[record]]
molecule = "Cn1cc2c(cc1=O)OCCCCc1cc(Cl)ccc1Oc1ncccc1-2"
assay_result = 7.20

[[record]]
molecule = "CCS(=O)(=O)Nc1ccc2c(c1)-c1cn(C)c(=O)cc1OCCC/C=C/c1cc(Cl)ccc1O2"
assay_result = 7.82

[[record]]
molecule = "CCS(=O)(=O)c1ccc2c(c1)-c1cn(C)c(=O)cc1OCCCCc1cc(F)cc(F)c1O2"
assay_result = 8.06

[[record]]
molecule = "CCN1CCOc2cc(=O)n(C)cc2-c2cc(NS(=O)(=O)CC)ccc2Oc2ccc(Cl)cc2C1"
assay_result = 8.06


A = Cn1cc2c(cc1=O)OCCCCc1cc(Cl)ccc1Oc1ncc(CS(C)(=O)=O)cc1-2
B = CCS(=O)(=O)c1ccc2c(c1)-c1cn(C)c(=O)cc1OCCCCc1ccccc1O2
C = CCS(=O)(=O)c1ccc2c(c1)-c1nn(C)c(=O)cc1OCCCCc1cc(F)cc(F)c1O2
Rank the items in ascending order with respect to pEC50. // ordering of labels required in reply C, A, B

---

- System: breast cancer cell line MX-1
- method-description: MX-1 cell line proliferation assay (3-day, Cell Titer Glo)
- Assay type: cell-based
- recorded-conditions: Homo sapiens, MX1, MX-1 cells, 72 hours, read-out: Cellular proliferation: EC50
pEC50: −log10 of the molar value.
quantity-kind: pEC50

[[record]]
compound = "Cn1cc2c(cc1=O)OCCCCc1cc(C(F)(F)F)ccc1Oc1ccc(NS(C)(=O)=O)cc1-2"
quantity_kind = "pEC50"
assay_result = 7.85


a = Cn1cc2c(cc1=O)OCCCc1cc(Cl)ccc1Oc1ccc(NS(C)(=O)=O)cc1-2
b = CCS(=O)(=O)Nc1ccc2c(c1)-c1cn(C)c(=O)cc1OCCOCc1cc(Cl)ccc1O2
c = CCOC(=O)c1ccc2c(c1)-c1cn(C)c(=O)cc1OCCOCc1cc(Cl)ccc1O2 [Example B-17c]
d = CC(=O)Nc1ccc2c(c1)-c1cn(C)c(=O)cc1OCCN(C(C)=O)Cc1cc(Cl)ccc1O2
Place the items in sequence of falling pEC50. Please express your ranking as an ordered list of the labels. b, c, a, d

---

- tested-system: BRD4 (BDI-BDII_K57-K550) (Homo sapiens)
- method-description: TR-FRET bromodomain binding assay
- recorded-conditions: His-tagged tandem bromodomain, Alexa647-labeled probe; Ki calculated from IC50s, probe Kd and probe concentration
pKi: −log10 of the molar value.
quantity-kind: pKi

Solved entries:
[[record]]
molecule_smiles = "CCS(=O)(=O)Nc1ccc2c(c1)-c1cn(C)c(=O)cc1OCCCCCc1cc(Cl)ccc1O2"
tested_system = "BRD4 (BDI-BDII_K57-K550) (Homo sapiens)"
quantity_kind = "pKi"
assay_result = 8.61

[[record]]
molecule_smiles = "CCS(=O)(=O)c1ccc2c(c1)-c1cn(C)c(=O)cc1OCC/C=C/c1ccc(Cl)cc1O2"
tested_system = "BRD4 (BDI-BDII_K57-K550) (Homo sapiens)"
quantity_kind = "pKi"
assay_result = 8.48

[[record]]
molecule_smiles = "CCS(=O)(=O)Nc1ccc2c(c1)-c1cn(C)c(=O)cc1OCCCCc1cc(F)ccc1O2"
tested_system = "BRD4 (BDI-BDII_K57-K550) (Homo sapiens)"
quantity_kind = "pKi"
assay_result = 8.80

[[record]]
molecule_smiles = "Cn1cc2c(cc1=O)OCCCCc1cc(Cl)ccc1Oc1ncc(CS(C)(=O)=O)cc1-2"
tested_system = "BRD4 (BDI-BDII_K57-K550) (Homo sapiens)"
quantity_kind = "pKi"
assay_result = 8.22


a = CCS(=O)(=O)Nc1ccc2c(c1)-c1cn(C)c(=O)cc1OCCCCc1cc(Cl)cnc1O2
b = CCS(=O)(=O)Nc1ccc2c(c1)-c1cn(C)c(=O)cc1OCCN(CCC(F)(F)F)Cc1cc(Cl)ccc1O2
c = Cn1cc2c(cc1=O)OCCCCc1cc(C#N)ccc1Oc1ccc(NS(C)(=O)=O)cc1-2
d = Cn1cc2c(cc1=O)OCCNC(=O)c1cc(Cl)ccc1Oc1ccc(N)cc1-2
e = CCNC(=O)Nc1ccc2c(c1)-c1cn(C)c(=O)cc1OCCCc1cc(Cl)ccc1O2
Sort (5 compounds) by pKi: min first. Response format: the labels, sorted as the prompt asks. d, e, a, c, b

P = CCS(=O)(=O)c1ccc2c(c1)-c1cn(C)c(=O)cc1OCCCc1ccccc1O2
Q = CCS(=O)(=O)c1ccc2c(c1)-c1cn(C)c(=O)cc1OCCCc1cc(Cl)ccc1O2
Smaller pKi value? Options are P and Q Refer to your chosen item by its label in the answer. Q
(Q: 8.12, P: 8.34)

---

- tested-system: BRD4 (BDI-BDII_K57-K550) (Homo sapiens, UniProt O60885)
- method-description: TR-FRET bromodomain binding assay
- recorded-conditions: His-tagged tandem bromodomain, Alexa647-labeled probe; Ki calculated from IC50s, probe Kd and probe concentration
quantity-kind: Ki (nM)

Some solved entries appear below for comparison.
[[record]]
molecule_smiles = "CCS(=O)(=O)c1ccc2c(c1)-c1cn(C)c(=O)cc1OCCCCc1ccc(F)cc1O2"
quantity_kind = "Ki"
units_text = "nM"
assay_result = 1.27

[[record]]
molecule_smiles = "CCS(=O)(=O)Nc1ccc2c(c1)-c1nn(C)c(=O)cc1OCCCCc1cc(Cl)ccc1O2"
quantity_kind = "Ki"
units_text = "nM"
assay_result = 2.91

[[record]]
molecule_smiles = "CCS(=O)(=O)c1ccc2c(c1)-c1cn(C)c(=O)cc1OCCCCc1cc(F)cc(F)c1O2"
quantity_kind = "Ki"
units_text = "nM"
assay_result = 1.25


A = Cn1cc2c(cc1=O)OCCCCc1cc(Cl)ccc1Oc1ncc(N)cc1-2
B = CCS(=O)(=O)c1ccc2c(c1)-c1cn(C)c(=O)cc1OCCCCc1cccc(C)c1O2
C = CCS(=O)(=O)c1ccc2c(c1)-c1cn(C)c(=O)cc1OCCCCc1ccc(Cl)cc1O2
rank_up(items): orders items by reported Ki in ascending numerical order. Thanks in advance for listing the labels in the requested order. C, B, A

1 = Cn1cc2c(cc1=O)OCCCCc1cc(Cl)ccc1Oc1ccc(CS(C)(=O)=O)cc1-2
2 = CCN1CCOc2cc(=O)n(C)cc2-c2cc(NS(=O)(=O)CC)ccc2Oc2ccc(Cl)cc2C1
Between 1 and 2 , whose measured Ki reads higher? Please indicate the selected item by its label. 2
(2: 15.1 nM, 1: 2.85 nM)

---

- tested-system: BRD4 (BDI-BDII_K57-K550) (Homo sapiens, UniProt O60885)
- method-description: TR-FRET bromodomain binding assay
- recorded-conditions: His-tagged tandem bromodomain, Alexa647-labeled probe; Ki calculated from IC50s, probe Kd and probe concentration
quantity-kind: Ki (nM)

[[record]]
molecule_smiles = "Cn1cc2c(cc1=O)OCCCCc1cc(OC(F)(F)F)ccc1Oc1ccc(NS(C)(=O)=O)cc1-2"
tested_system = "BRD4 (BDI-BDII_K57-K550) (Homo sapiens, UniProt O60885)"
units_text = "nM"
assay_result = 1.15


1 = CCS(=O)(=O)Nc1cnc2c(c1)-c1cn(C)c(=O)cc1OCCCCc1cc(Cl)ccc1O2
2 = CCS(=O)(=O)c1ccc2c(c1)-c1nn(C)c(=O)cc1OCCCCc1ccncc1O2
3 = CCS(=O)(=O)c1ccc2c(c1)-c1cn(C)c(=O)cc1OCCCCc1cc(Cl)ccc1O2
List from greatest to least Ki. List the labels in the requested order. 2, 1, 3

The values you see were collected from patent US9994581B2.
